Data credit: PubChem BioAssay (NCI)

Test: NCI Yeast Anticancer Drug Screen. Data for the cln2 rad14 strain (AID 165);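 also: 0% = growth equal to vehicle treated cultures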
Conditions: S. cerevisiae cln2 rad14 strain, at 50.0 µM, stronger effect = higher value
The panel holds about 79,000 compounds, 15% with a hit somewhere; the sample as a whole holds those more often. Where a SMILES comes first, the peptide text is derived from it. [ ]: non-standard residue; d: D form. The star is where a group is joined. ξ: configuration not given here. NMeF = CN[C@@H](Cc1ccccc1)C(=O)O; NMeV = CN[C@H](C(=O)O)C(C)C; ξNMeN = CNC(CC(N)=O)C(=O)O; NMeA = CN[C@@H](C)C(=O)O; ξNMeV = CNC(C(=O)O)C(C)C; Boc = CC(C)(C)OC(=O)*
Assign growth inhibition to each entry below.
Give bare numbers, in %.

Field: example entries. Status: answers known.
molecule=Cc1[nH]c2ccccc2c1C(c1cc(Cl)cc(Cl)c1O)c1c(C)[nH]c2ccccc12 u=% observed_result=-1.9
molecule=c1ccc(-c2cnc(C3CCCCC3)o2)cc1 u=% observed_result=10.2
molecule="O=C(c1ccccc1)C(O)(c1ccccc1)C1CCCC/C1=N\\N(c1ccccc1)c1ccccc1 (stereo not drawn)" u=% observed_result=32.7

Give me growth inhibition for each of these molecules, listed below.
1. c1ccc(-c2nnc(-c3ccc4ccccc4c3)o2)cc1
2. CCCc1cc(=O)oc2c3c(c4c(c12)OC(C)(C)CC4)O[C@H](C)C(C)C3=O (stereo partly drawn)
3. CCOC(=O)c1c(C)cc2ccccn12
4. COC(=O)[C@H](C)N(C)C(=O)C(CC(N)=O)N(C)C(=O)[C@H](Cc1ccccc1)N(C)C(=O)[C@@H]1CCCN1C(=O)[C@H](C(C)C)N(C)C(=O)C(C(C)C)N(C)C(=O)[C@@H](NC(=O)OC(C)(C)C)C(C)C (stereo partly drawn) (Boc-V[ξNMeV][NMeV]P[NMeF][ξNMeN][NMeA]-OMe)
5. c1cnc2ncncc2n1
6. C/C(=N/NC(N)=O)C1c2ccccc2Cc2ccccc21
7. CCC(=O)Oc1ccccc1C(C)C
8. COC(=O)c1cccc2c1Cc1cc(N)ccc1-2

1: -40; 2: 0.4; 3: -26.7; 4: 8.9; 5: 28.8; 6: -0.3; 7: 8.55; 8: -21.4

Give me growth inhibition for each of these molecules, listed below.
1. Cc1cc(=O)[nH]c(Nc2nc3cc(C)c(C)cc3[nH]2)n1
2. CCCC/C=C(\C)C(C)(C#N)C(=O)OCC (stereo not drawn)
3. CC(Cl)(CCl)C(=O)NCNC(=O)C(C)(Cl)CCl (stereo not drawn)
4. CCCCC(=CC(C)(C)C)CCCC
5. O=C(C(O)c1ccccc1)N1CCCCC1 (stereo not drawn)
6. CN=C1NC(C)(C)C2CCC(C)(CC2)S1
7. COc1ccccc1C1CCCCC1OS(=O)(=O)c1ccc(C)cc1 (stereo not drawn)

9.2
-14
-19.1
7.95
9.85
-71.3
-9.65

Give me growth inhibition for each of these molecules, listed below.
1. Cn1c(-c2ccccc2)c/c(=N\NS(C)(=O)=O)c2cc(S(=O)(=O)O)ccc21
2. CC1OC(C)(c2ccc(Cl)cc2)OCC1(C)C (stereo not drawn)
3. CC(=O)OC1(C(=O)O)CCCCC1
4. CC(C)c1cc(C(C)C)c(Cc2c(C(C)C)cc(C(C)C)cc2C(C)C)c(C(C)C)c1

[-3, -26.6, -19.9, 0.55]
